B1: EEHEE_rd3_1049 (parent)
chain: TTVKLGDIKVTFDNPEKAKKYAQKLAKIYQLTVHVHGDTIHVK

Variants of: B1
Assay: folding stability dG (cDNA display proteolysis); higher = more stable
Conditions: PBS, room temperature
Threshold check on folding stability dG: at or above 1 kcal/mol gives Satisfied, strictly below gives Not satisfied.

>>> group("G6F")
"Satisfied"
>>> group("P15T")
"Satisfied"
>>> group("Y29L")
"Satisfied"
>>> group("D38Y")
"Satisfied"
>>> group("T11K")
"Satisfied"
>>> group("Y21K")
"Not satisfied"
>>> group("V42F")
"Satisfied"
>>> group("T11R")
"Satisfied"
>>> group("L25K")
"Not satisfied"
>>> group("T39A")
"Satisfied"
>>> group("L5H")
"Satisfied"
>>> group("N14Q")
"Satisfied"
>>> group("T11P")
"Satisfied"
>>> group("I8V")
"Satisfied"
>>> group("V42K")
"Not satisfied"
>>> group("K43P")
"Not satisfied"
>>> group("K19D")
"Not satisfied"
>>> group("A26R")
"Satisfied"
>>> group("T32R")
"Satisfied"
>>> group("K17Q")
"Satisfied"
>>> group("Y21M")
"Not satisfied"
>>> group("Q23T")
"Satisfied"
>>> group("V3N")
"Not satisfied"
>>> group("K43Q")
"Satisfied"
>>> group("D38N")
"Satisfied"
>>> group("E16Y")
"Satisfied"
>>> group("N14T")
"Satisfied"
>>> group("G37H")
"Satisfied"
>>> group("T32M")
"Satisfied"
>>> group("I28H")
"Satisfied"
>>> group("L25T")
"Not satisfied"
>>> group("E16F")
"Satisfied"
>>> group("K9N")
"Satisfied"
>>> group("D13F")
"Satisfied"
>>> group("K20E")
"Satisfied"
>>> group("I8G")
"Not satisfied"
>>> group("K43I")
"Satisfied"
>>> group("V35N")
"Satisfied"
>>> group("A22N")
"Not satisfied"
>>> group("K20H")
"Satisfied"
>>> group("A22E")
"Not satisfied"
>>> group("K17F")
"Satisfied"
>>> group("D38H")
"Satisfied"
>>> group("L5T")
"Not satisfied"
>>> group("I40M")
"Satisfied"
>>> group("D13R")
"Satisfied"
>>> group("K9E")
"Satisfied"
>>> group("I8D")
"Not satisfied"
>>> group("K27T")
"Satisfied"
>>> group("A22I")
"Satisfied"
>>> group("K20V")
"Satisfied"
>>> group("K19R")
"Satisfied"
>>> group("K24L")
"Satisfied"
>>> group("D7T")
"Satisfied"
>>> group("T2M")
"Satisfied"
>>> group("I28F")
"Satisfied"
>>> group("I40D")
"Not satisfied"
>>> group("H36D")
"Satisfied"
>>> group("Q30A")
"Satisfied"
>>> group("I40S")
"Not satisfied"
>>> group("K20Y")
"Satisfied"
>>> group("L31N")
"Not satisfied"
>>> group("T1Y")
"Satisfied"
>>> group("H34E")
"Satisfied"
>>> group("K27F")
"Satisfied"
>>> group("Q30L")
"Satisfied"
>>> group("F12H")
"Not satisfied"
>>> group("L31D")
"Not satisfied"
>>> group("T32V")
"Satisfied"
>>> group("D13Q")
"Satisfied"
>>> group("K17V")
"Satisfied"
>>> group("F12I")
"Not satisfied"
>>> group("K27E")
"Satisfied"
>>> group("T32Q")
"Satisfied"
>>> group("I40F")
"Satisfied"
>>> group("A26N")
"Not satisfied"
>>> group("T32G")
"Satisfied"
>>> group("G37M")
"Satisfied"
>>> group("V42D")
"Not satisfied"

Measured values drawn from the MegaScale stability set (Tsuboyama et al. 2023) for this set.
